# measured.on: human RXFP1 (Homo sapiens, UniProt Q9HBX9)
# Construct: expressed in transfected cells
# Sequence (Q9HBX9 1-757): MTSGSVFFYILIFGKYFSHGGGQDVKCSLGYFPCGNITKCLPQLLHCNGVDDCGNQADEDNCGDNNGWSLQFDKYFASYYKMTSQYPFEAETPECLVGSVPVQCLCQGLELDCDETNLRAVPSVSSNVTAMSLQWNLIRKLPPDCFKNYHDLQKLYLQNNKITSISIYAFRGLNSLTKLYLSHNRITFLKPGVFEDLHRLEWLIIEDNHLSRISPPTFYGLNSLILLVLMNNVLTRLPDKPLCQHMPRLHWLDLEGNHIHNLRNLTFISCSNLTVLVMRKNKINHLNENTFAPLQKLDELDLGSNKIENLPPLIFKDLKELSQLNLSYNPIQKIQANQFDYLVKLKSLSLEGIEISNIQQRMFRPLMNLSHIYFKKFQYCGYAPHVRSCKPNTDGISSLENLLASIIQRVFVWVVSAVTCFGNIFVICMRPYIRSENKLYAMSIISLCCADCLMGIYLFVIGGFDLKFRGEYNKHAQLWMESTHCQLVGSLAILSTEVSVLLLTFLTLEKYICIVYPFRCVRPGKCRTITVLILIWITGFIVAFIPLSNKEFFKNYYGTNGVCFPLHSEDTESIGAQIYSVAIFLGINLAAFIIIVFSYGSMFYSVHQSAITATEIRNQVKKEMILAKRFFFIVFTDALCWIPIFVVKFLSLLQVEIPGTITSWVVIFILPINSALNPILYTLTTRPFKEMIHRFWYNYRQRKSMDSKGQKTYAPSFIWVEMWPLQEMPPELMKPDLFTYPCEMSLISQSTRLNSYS
# experiment: RXFP1 cAMP assay (hRXFP1 HEK293 cAMP assay, HTRF)
# Assay type: cell-based
# assay.context: HEK293 cells stably expressing human RXFP1, 30 min at room temperature, read-out: cAMP hRXFP1 HEK293 Assay EC50
pEC50: −log10 of the molar value.
endpoint.name: pEC50

Observe how each entry below is paired with its result.
>  <compound>
COc1ccc(-c2cc(C3=NOC4CC(CO)CC34)ccc2F)cc1C(=O)N[C@H]1[C@@H](C(=O)Nc2ccc(F)c(C(F)(F)F)c2)[C@H]2CC[C@@H]1/C2=C\C1CC1 (some centres unmarked) [compound 953]

>  <endpoint.name>
pEC50

>  <value.observed>
8.15

$$$$
>  <compound>
CNC(=O)c1ccc(F)c(-c2ccc(OC)c(C(=O)N[C@@H]3C4CCC(/C4=C/C4CC4)[C@@H]3C(=O)Nc3ccc(F)c(C(F)(F)F)c3)c2)c1 (some centres unmarked) [Example 166]

>  <endpoint.name>
pEC50

>  <value.observed>
7.96

$$$$
>  <compound>
COc1ccc(C2=NOC3(C2)CC(CO)C3)cc1C(=O)N[C@H]1[C@@H](C(=O)Nc2ccc(F)c(C(F)(F)F)c2)[C@H]2CC[C@@H]1/C2=C\C1CC1 (some centres unmarked) [Example 511]

>  <endpoint.name>
pEC50

>  <value.observed>
7.82

$$$$

[1] COc1ccc(-c2cc(C(N[S+]([O-])C(C)(C)C)C(F)(F)F)ccc2F)cc1C(=O)N[C@H]1[C@@H](C(=O)Nc2ccc(F)c(C(F)(F)F)c2)[C@H]2CC[C@@H]1/C2=C\C1CC1 (some centres unmarked) [Example 256]
[2] COc1ccc(-c2cc(C(=O)O)ccc2F)cc1C(=O)N[C@@H]1C2CCC(/C2=C/C2CC2)[C@@H]1C(=O)NCc1cccc(C(F)(F)F)c1 (some centres unmarked) [compound 264]
Req: Name the one with the greater pEC50 value, either 1 or 2 as given. # answer = label of selected item
Resp: 1

###

# measured.on: human RXFP1 (Homo sapiens, UniProt Q9HBX9)
# Construct: expressed in transfected cells
# experiment: RXFP1 cAMP assay (hRXFP1 HEK293 cAMP assay, HTRF)
# Type: cell-based
# assay.context: HEK293 cells stably expressing human RXFP1, 30 min at room temperature, read-out: cAMP hRXFP1 HEK293 Assay EC50
pEC50: −log10 of the molar value.
endpoint.name: pEC50

Observe how each entry below is paired with its result.
>  <compound>
COc1ccc(C2=NOC(C(=O)O)C2)cc1C(=O)N[C@@H]1C2CCC(/C2=C/C(F)(F)F)[C@@H]1C(=O)Nc1ccc(F)c(C(F)(F)F)c1 (some centres unmarked)

>  <pEC50>
7.27

$$$$
>  <compound>
COc1ccc(C2=NOC(C3(O)CCCC3)C2)cc1C(=O)N[C@H]1[C@@H](C(=O)Nc2ccc(F)c(C(F)(F)F)c2)[C@H]2CC[C@@H]1/C2=C\C1CC1 (single isomer, unassigned) [compound 488]

>  <pEC50>
8.09

$$$$

[P] COc1ccc(C2=NOC(CCO)C2CCO)cc1C(=O)N[C@H]1[C@@H](C(=O)Nc2ccc(F)c(C(F)(F)F)c2)[C@H]2CC[C@@H]1/C2=C\C1CC1 (some centres unmarked)
[Q] COc1c(F)cc(C2=NOC3CC(CO)CC23)cc1C(=O)N[C@H]1[C@@H](C(=O)N[C@H](C)C2(C)CC2(F)F)[C@H]2CC[C@@H]1/C2=C\C1CC1 (some centres unmarked) [compound 759]
[R] COc1ccc(C2=NO[C@@H]3CC[C@@H](O)[C@H]23)cc1C(=O)N[C@H]1[C@@H](C(=O)Nc2ccc(F)c(C(F)(F)F)c2)[C@H]2CC[C@@H]1/C2=C\C1CC1 (single isomer, unassigned)
Req: Sort entries by pEC50 from minimum to maximum value. Return value: ordered labels per request.
Resp: R, P, Q

###

# measured.on: human RXFP1 (Homo sapiens)
# Construct: expressed in transfected cells
# experiment: RXFP1 cAMP assay (hRXFP1 HEK293 cAMP assay, HTRF)
# Assay type: cell-based
# assay.context: HEK293 cells stably expressing human RXFP1, 30 min at room temperature, read-out: cAMP hRXFP1 HEK293 Assay EC50
endpoint.name: EC50 (nM)

>  <compound>
CC(C)=C1C2CCC1[C@H](C(=O)Nc1ccc(F)c(C(F)(F)F)c1)[C@@H]2NC(=O)c1cc(-c2cc(C(=O)O)ccc2F)ccc1N(C)C (stereo partly drawn)

>  <output.unit>
nM

>  <EC50>
180

$$$$

[I] COc1ccc(C2=NOC3COCC23)cc1C(=O)N[C@H]1[C@@H](C(=O)Nc2ccc(F)c(C(F)(F)F)c2)[C@H]2CC[C@@H]1/C2=C\c1cscn1 (stereo partly drawn)
[II] COc1ccc(C2=NOC3(CO)CCC23CO)cc1C(=O)N[C@H]1[C@@H](C(=O)Nc2ccc(F)c(C(F)(F)F)c2)[C@H]2CC[C@@H]1/C2=C\C1CC1 (single isomer, unassigned) [compound 623]
Req: Look at I and II . Which one has the lower recorded EC50 number? # answer = label of selected item
Resp: I
(I: 3.2 nM, II: 169 nM)

###

# measured.on: human RXFP1 (Homo sapiens)
# Construct: expressed in transfected cells
# Sequence (Q9HBX9 1-757): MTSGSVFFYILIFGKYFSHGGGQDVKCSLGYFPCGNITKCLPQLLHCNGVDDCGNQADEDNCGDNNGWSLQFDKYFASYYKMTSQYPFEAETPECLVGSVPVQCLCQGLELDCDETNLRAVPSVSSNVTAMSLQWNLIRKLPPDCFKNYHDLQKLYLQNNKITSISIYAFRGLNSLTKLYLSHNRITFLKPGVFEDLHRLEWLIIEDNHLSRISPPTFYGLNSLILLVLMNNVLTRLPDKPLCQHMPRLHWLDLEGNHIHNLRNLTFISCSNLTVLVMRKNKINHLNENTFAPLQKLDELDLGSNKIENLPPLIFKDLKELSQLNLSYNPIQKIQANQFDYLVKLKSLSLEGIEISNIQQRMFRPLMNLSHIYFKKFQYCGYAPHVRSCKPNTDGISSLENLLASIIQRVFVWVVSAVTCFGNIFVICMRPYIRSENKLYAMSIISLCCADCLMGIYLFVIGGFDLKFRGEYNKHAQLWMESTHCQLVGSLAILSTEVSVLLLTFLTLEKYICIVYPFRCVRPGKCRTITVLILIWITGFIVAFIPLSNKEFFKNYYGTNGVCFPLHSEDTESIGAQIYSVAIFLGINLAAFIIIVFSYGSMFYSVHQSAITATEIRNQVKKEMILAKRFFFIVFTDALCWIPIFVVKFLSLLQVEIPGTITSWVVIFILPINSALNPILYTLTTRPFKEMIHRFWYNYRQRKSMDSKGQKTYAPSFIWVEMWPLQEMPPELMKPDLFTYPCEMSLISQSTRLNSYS
# experiment: RXFP1 cAMP assay (hRXFP1 HEK293 cAMP assay, HTRF)
# Assay type: cell-based
# assay.context: HEK293 cells stably expressing human RXFP1, 30 min at room temperature, read-out: cAMP hRXFP1 HEK293 Assay EC50
endpoint.name: EC50 (nM)

>  <molecule>
COc1ccc(C2=NOC3CC(CO)CC23)cc1C(=O)N[C@H]1[C@@H](C(=O)N[C@H](C)C2(C)CC2)[C@H]2CC[C@@H]1/C2=C\c1ccncn1 (stereo partly drawn)

>  <output.unit>
nM

>  <value.observed>
2.1

$$$$

[P] COc1ccc(-c2cc(C(OC(=O)N3CCC3)C(F)(F)F)ccc2F)cc1C(=O)N[C@@H]1C2CCC(/C2=C/C2CC2)[C@@H]1C(=O)Nc1ccc(F)c(C(F)(F)F)c1 (stereo partly drawn)
[Q] COc1ccc([C@H]2CO[C@@H]3[C@H]2OC[C@H]3O)cc1C(=O)N[C@H]1[C@@H](C(=O)Nc2ccc(F)c(C(F)(F)F)c2)[C@H]2CC[C@@H]1/C2=C\C1CC1
Req: Name the one with the greater EC50 value, either P or Q as given. # answer = label of selected item
Resp: Q
(Q: 207 nM, P: 2 nM)
